Where do the numbers come from? From PubChem BioAssay AID1259407.

tested on: CCRIS mutagenicity, Ames/micronucleus/aberration tests; experiment: CCRIS mutagenicity studies; conditions: Test System: AMES SALMONELLA TYPHIMURIUM; Strain/Indicator: TA98; Metabolic Activation: NONE; Method: STANDARD PLATE
Active and inactive are the calls of the source. How the calls were made is not given here.
Outcomes: active, inactive

| molecule | target of assay | label |
| --- | --- | --- |
| O=[N+]([O-])c1cc2[nH]c3ccc4ccccc4c3c2c2cc(O)ccc12 | CCRIS mutagenicity, Ames/micronucleus/aberration tests | inactive |
| CC(=O)N(O)c1ccc2c(c1)Cc1ccccc1-2 | CCRIS mutagenicity, Ames/micronucleus/aberration tests | active |
| c1ccc2cc3c(ccc4cccnc43)cc2c1 | CCRIS mutagenicity, Ames/micronucleus/aberration tests | inactive |
| CC(C)Nc1ccc(Nc2ccccc2)cc1 | CCRIS mutagenicity, Ames/micronucleus/aberration tests | inactive |
| Nc1ncnc2nc[nH]c12 | CCRIS mutagenicity, Ames/micronucleus/aberration tests | inactive |
| CC(=O)OCc1c2ccccc2cc2c1ccc1ccccc12 | CCRIS mutagenicity, Ames/micronucleus/aberration tests | active |
| CSc1ccc(Cl)cc1 | CCRIS mutagenicity, Ames/micronucleus/aberration tests | inactive |
| COC(=O)c1ccc([N+](=O)[O-])o1 | CCRIS mutagenicity, Ames/micronucleus/aberration tests | active |
| O=C(Nc1ccc(Cl)cc1)c1csc([N+](=O)[O-])c1 | CCRIS mutagenicity, Ames/micronucleus/aberration tests | active |
| CCCCCCCOP(=S)([S-])OCCCCCCC.CCCCCCCOP(=S)([S-])OCCCCCCC.[Zn+2] | CCRIS mutagenicity, Ames/micronucleus/aberration tests | inactive |
| CC1(C)C(C=C(Cl)Cl)C1C(=O)OCc1cccc(Oc2ccccc2)c1 (configuration not stated) | CCRIS mutagenicity, Ames/micronucleus/aberration tests | inactive |
| O=C(Nc1ccc2c(O)c(N=Nc3ccc(N=Nc4ccc(S(=O)(=O)O)cc4)cc3)c(S(=O)(=O)O)cc2c1)c1ccccc1 | CCRIS mutagenicity, Ames/micronucleus/aberration tests | inactive |
